Parameter 'readout' = pIC50; parameter 'system' = PI3K γ (Homo sapiens).
Sequence (P48736 whole entry): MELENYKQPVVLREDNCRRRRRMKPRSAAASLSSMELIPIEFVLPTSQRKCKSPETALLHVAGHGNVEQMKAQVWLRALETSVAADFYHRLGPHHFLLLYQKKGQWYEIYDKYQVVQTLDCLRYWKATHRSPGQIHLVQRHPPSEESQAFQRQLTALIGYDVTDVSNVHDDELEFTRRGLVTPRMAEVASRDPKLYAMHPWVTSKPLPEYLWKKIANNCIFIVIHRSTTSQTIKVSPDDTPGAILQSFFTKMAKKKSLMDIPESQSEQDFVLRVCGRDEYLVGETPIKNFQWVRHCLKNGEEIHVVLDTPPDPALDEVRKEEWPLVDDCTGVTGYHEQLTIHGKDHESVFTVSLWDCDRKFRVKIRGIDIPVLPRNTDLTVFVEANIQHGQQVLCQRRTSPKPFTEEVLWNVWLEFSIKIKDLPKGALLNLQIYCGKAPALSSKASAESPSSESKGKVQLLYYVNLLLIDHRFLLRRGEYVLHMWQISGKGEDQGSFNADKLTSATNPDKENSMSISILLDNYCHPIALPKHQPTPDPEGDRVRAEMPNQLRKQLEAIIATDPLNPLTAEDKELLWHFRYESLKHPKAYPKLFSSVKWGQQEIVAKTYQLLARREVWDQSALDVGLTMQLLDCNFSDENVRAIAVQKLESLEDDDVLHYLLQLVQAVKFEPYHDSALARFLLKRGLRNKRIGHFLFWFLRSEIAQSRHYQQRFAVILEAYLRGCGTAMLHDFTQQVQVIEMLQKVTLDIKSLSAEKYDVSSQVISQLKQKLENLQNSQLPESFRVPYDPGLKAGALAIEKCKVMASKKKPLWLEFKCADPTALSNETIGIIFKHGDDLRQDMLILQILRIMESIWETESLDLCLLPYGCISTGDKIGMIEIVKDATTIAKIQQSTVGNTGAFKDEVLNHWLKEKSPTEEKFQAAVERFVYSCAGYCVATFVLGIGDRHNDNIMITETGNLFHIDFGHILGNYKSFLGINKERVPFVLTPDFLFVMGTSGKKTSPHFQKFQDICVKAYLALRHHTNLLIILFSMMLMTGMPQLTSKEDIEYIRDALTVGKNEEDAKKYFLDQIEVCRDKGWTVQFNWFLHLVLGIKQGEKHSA
pIC50: −log10 of the molar value.

Recorded pIC50, per entry:
[[record]]
record_smiles = "C=CC(=O)N1CCOc2ccc(-c3csc4c(=O)cc(N5CCOCC5)oc34)cc21"
quantity_name = "pIC50"
measured_result = "> 6.00"

[[record]]
record_smiles = "CC#CC(=O)Nc1cccc(-c2csc3c(=O)cc(N4CCOCC4)oc23)c1"
quantity_name = "pIC50"
measured_result = "> 6.00"

[[record]]
record_smiles = "N#C/C(=C\\C1CC1)C(=O)Nc1cccc(-c2csc3c(=O)cc(N4CCOCC4)oc23)c1"
quantity_name = "pIC50"
measured_result = "5.00 to 6.00"


Continue with the compound presented below.
### Prompt Given C=CC(=O)Nc1cccc(-c2csc3c(=O)cc(N4CCNCC4)oc23)c1.O=C(O)C(F)(F)F , state its recorded pIC50.
### Response < 4.30

* * *

IC50 tested on PI3K γ (Homo sapiens): recorded values

Example entries begin here.
[[record]]
compound = "O=c1cc(N2CCOCC2)oc2c(-c3ccc4c(c3)OCCO4)csc12 [Compound 0, reference compound]"
quantity_name = "IC50"
measured_result = "< 1 µM"

[[record]]
compound = "C=CS(=O)(=O)N1CCOc2ccc(-c3csc4c(=O)cc(N5CCOCC5)oc34)cc21"
quantity_name = "IC50"
measured_result = "< 1 µM"

[[record]]
compound = "CCCCC/C=C/C(=O)Nc1cccc(-c2csc3c(=O)cc(N4CCOCC4)oc23)c1"
quantity_name = "IC50"
measured_result = "10 to 30 µM"

[[record]]
compound = "C=CC(=O)N1CCOc2ccc(-c3csc4c(=O)cc(N5CCN(C)CC5)oc34)cc21"
quantity_name = "IC50"
measured_result = "> 50 µM"

[[record]]
compound = "C=CC(=O)Nc1cc(OC)cc(-c2csc3c(=O)cc(N4CCOCC4)oc23)c1"
quantity_name = "IC50"
measured_result = "< 1 µM"


### Prompt Param readout = IC50; param system = PI3K γ (Homo sapiens); param query = C=CC(=O)Nc1cccc(-c2csc3c(=S)cc(N4CCOCC4)oc23)c1 ; response: value
### Response < 1 µM

### Prompt Find the measured IC50: item C=CC(=O)N1CCOc2ccc(-c3csc4c(=O)cc(N5CCNCC5)oc34)cc21 , target or system PI3K γ (Homo sapiens).
### Response > 50 µM

* * *

measured on: BRD4-1 (binding domain 1 of BRD4) (Homo sapiens)
quantity name: IC50

# example entries with known answers
[[record]]
record_smiles = "CCCCC/C=C/C(=O)Nc1cccc(-c2csc3c(=O)cc(N4CCOCC4)oc23)c1"
measured_on = "BRD4-1 (binding domain 1 of BRD4) (Homo sapiens)"
measured_result = "1000 to 10000 nM"

[[record]]
record_smiles = "N#C/C(=C\\C1CC1)C(=O)Nc1cccc(-c2csc3c(=O)cc(N4CCOCC4)oc23)c1"
measured_on = "BRD4-1 (binding domain 1 of BRD4) (Homo sapiens)"
measured_result = "1000 to 10000 nM"

[[record]]
record_smiles = "C=CC(=O)N1CCOc2ccc(-c3csc4c(=O)cc(N5CCN(C(=O)OC(C)(C)C)CC5)oc34)cc21"
measured_on = "BRD4-1 (binding domain 1 of BRD4) (Homo sapiens)"
measured_result = "< 1000 nM"

[[record]]
record_smiles = "C=CC(=O)Nc1cccc(-c2csc3c(=O)cc(N4CCNCC4)oc23)c1.O=C(O)C(F)(F)F"
measured_on = "BRD4-1 (binding domain 1 of BRD4) (Homo sapiens)"
measured_result = "< 1000 nM"

[[record]]
record_smiles = "C=CC(=O)Nc1cccc(-c2csc3c(=S)cc(N4CCOCC4)oc23)c1"
measured_on = "BRD4-1 (binding domain 1 of BRD4) (Homo sapiens)"
measured_result = "10000 to 30000 nM"


### Prompt # returns recorded IC50 (system: BRD4-1 (binding domain 1 of BRD4) (Homo sapiens)) for C=CC(=O)N1CCOc2ccc(-c3csc4c(=O)cc(N5CCOCC5)oc34)cc21
### Response < 1000 nM

### Prompt Query for BRD4-1 (binding domain 1 of BRD4) (Homo sapiens): what IC50 does the record show for CC#CC(=O)Nc1cccc(-c2csc3c(=O)cc(N4CCOCC4)oc23)c1 ?
### Response < 1000 nM

### Prompt Notebook entry, BRD4-1 (binding domain 1 of BRD4) (Homo sapiens) assay: IC50 of C=CC(=O)N1CCOc2ccc(-c3csc4c(=O)cc(N5CCN(C)CC5)oc34)cc21 = ?
### Response 1000 to 10000 nM

Numbers sourced from patent US20210300939A1.
